Entries and their IC50
# experiment notes: Inhibition of recombinant his tagged IMP1 (unknown origin) expressed in Escherichia coli (DE3) cells using FC5 as substrate by microplate reader assay
parameter: IC50 (µM)

{"molecule": "OB(O)c1cccc(-c2cn(-c3cccc(Cl)c3)nn2)c1", "inequality symbol": ">", "numeric result": 100}
{"molecule": "O=P(O)(O)Cc1ccc(-n2cc(-c3cccc(Cl)c3)nn2)cc1", "inequality symbol": ">", "numeric result": 100}
{"molecule": "COc1ccc(C(c2cccc(-n3cc(-c4cccc(N)c4)nn3)c2)P(=O)(O)O)cc1 (stereo unspecified)", "inequality symbol": "=", "numeric result": 3.25}
{"molecule": "O=P(O)(O)Cc1cccc(-n2cc(-c3ccc(Br)cc3)nn2)c1", "inequality symbol": "=", "numeric result": 3.28}
{"molecule": "Nc1ccccc1-c1cn(-c2cccc(CP(=O)(O)O)c2)nn1", "inequality symbol": "=", "numeric result": 6.5}
{"molecule": "O=C(NCc1cn(-c2cccc(CP(=O)(O)O)c2)nn1)C(F)(F)F", "inequality symbol": "=", "numeric result": 54.6}
{"molecule": "Nc1cccc(-c2cn(-c3cccc(C(c4ccc(F)cc4)P(=O)(O)O)c3)nn2)c1 (stereo unspecified)", "inequality symbol": "=", "numeric result": 0.7}
{"molecule": "O=C(O)c1cccc(-n2cc(CNc3ccccc3)nn2)c1C(=O)O", "inequality symbol": "=", "numeric result": 3.53}
{"molecule": "O=P(O)(O)Cc1cccc(-n2cc(-c3ccccc3F)nn2)c1", "inequality symbol": "=", "numeric result": 8.49}
{"molecule": "Nc1cccc(-c2cn(-c3cccc(C(c4cccc5ccccc45)P(=O)(O)O)c3)nn2)c1 (stereo unspecified)", "inequality symbol": "=", "numeric result": 0.037}
{"molecule": "CCCc1ccc(C(c2cccc(-n3cc(-c4cccc(N)c4)nn3)c2)P(=O)(O)O)cc1 (stereo unspecified)", "inequality symbol": "=", "numeric result": 0.19}
{"molecule": "O=C(O)c1ccc(-n2cc(-c3ccccc3)nn2)cc1C(=O)O", "inequality symbol": "=", "numeric result": 46.2}
{"molecule": "CSc1ccc(C(c2cccc(-n3cc(-c4cccc(N)c4)nn3)c2)P(=O)(O)O)cc1 (stereo unspecified)", "inequality symbol": "=", "numeric result": 0.11}
{"molecule": "Nc1cccc(-c2cn(-c3cccc(C(c4ccc(-c5ccccc5)cc4)P(=O)(O)O)c3)nn2)c1 (stereo unspecified)", "inequality symbol": "=", "numeric result": 0.15}
{"molecule": "NCCN[C@H]1CC[C@H](CC(=O)N[C@H]2Cc3cccc(C(=O)O)c3OB2O)CC1", "inequality symbol": "=", "numeric result": 13.2}
{"molecule": "NCc1cn(-c2cccc(C(=O)O)c2C(=O)O)nn1", "inequality symbol": "=", "numeric result": 81.5}
{"molecule": "CC(C)(C)OC(=O)NCCn1cc(-c2cccc(B(O)O)c2)nn1", "inequality symbol": ">", "numeric result": 100}
{"molecule": "Nc1cccc(-c2cn(-c3cccc(C(=O)O)c3C(=O)O)nn2)c1", "inequality symbol": "=", "numeric result": 1.17}
{"molecule": "O=P(O)(O)Cc1cccc(-n2cc(-c3ccc(F)cc3)nn2)c1", "inequality symbol": "=", "numeric result": 2.17}
{"molecule": "CC(C)(C)c1cn(-c2cccc(CP(=O)(O)O)c2)nn1", "inequality symbol": "=", "numeric result": 9.5}
{"molecule": "O=C(NCc1cn(-c2ccc(CP(=O)(O)O)cc2)nn1)C(F)(F)F", "inequality symbol": ">", "numeric result": 100}

Taken from ChEMBL document CHEMBL5620345.
